read-out: MicroRNA 122 (MIR122), gene 406906; experiment: LTEA_HepaRG_MIR122: Life Technologies and Expression Analysis (LTEA) Assay for MicroRNA 122 (MIR122) using HepaRG (AID 2283516); conditions: mRNA level, 48 h; actives raise or lower the signal
Calls of active or inactive are those of the source. How the source made its calls: active means hit-call score of the fitted dose curve at least 0.9, where 1 is the maximum; inactive means score below 0.9.
One label from this list, please: active, inactive

Worked set:
CC(=O)C(C)=CC1C(C)=CCCC1(C)C (centres undefined); inactive
CN1CCCC1=O; inactive
NCCO; inactive

Request: Tell me the assay call for O=C(O)Cc1ccccc1Nc1c(Cl)cccc1Cl please.
Response: inactive

Request: Moving on to OC[C@@H](O)[C@@H](O)[C@H](O)[C@H](O)CO
Response: inactive
